Would you mind telling me the reported IC50 of each entry?
METHOD SUMMARY: in vitro
CONDITION DESCRIPTION: human, Toxicity IC50 (nM) ± SD, HDF, healthy cell line HDF, SRB assay, 72 h exposure

Would you please look over these solved cases?
>  <SMILES STRING>
COc1cc2c(c(OC)c1OC)-c1ccc(OCc3ccc(/C=C/c4ccccn4)cc3)c(=O)cc1[C@@H](NC(C)=O)CC2

>  <REPORTED VALUE>
4 to 5 nM

$$$$
>  <SMILES STRING>
COc1cc2c(c(OC)c1OC)-c1ccc(=O)c(OCc3ccc(I)cc3)cc1[C@@H](NC(C)=O)CC2

>  <REPORTED VALUE>
3.94 nM

$$$$

Here is the next item to consider.
Task: Can you look up the measured IC50 of COc1cc2c(c(OC)c1OC)-c1ccc(=O)c(OCc3ccc(/C=C/c4ccc5ccccc5c4)cc3)cc1[C@@H](NC(C)=O)CC2 for me?
Result: 8.19 nM
